system: CSK; assay: KINOMEscan kinase binding assay; details: at 1 μM
Reported % Ctrl values follow for various molecules
Your answer should be a plain number; it is taken to be in %.

Cc1cc2c([nH]1)/C=C1\C(=O)Nc3c(Cl)cc(cc31)-c1cn(C)nc1COC[C@@H](C)NC2=O [Cpd. 3]
94

# molecule Cc1cc2c([nH]1)/C=C1\C(=O)Nc3ccc(cc31)-c1c(nn(C)c1C)OCCCN(C)C2=O [Cpd. 1] ; its % Ctrl = 97

Entry Cc1cc2c([nH]1)/C=C1\C(=O)Nc3ccc(cc31)-c1c(nn(C)c1C)COCCN(C)C2=O [Cpd. 2] , % Ctrl reported as 100

Entry C[C@@H]1COCc2nn(C)cc2-c2cc(Cl)c3c(c2)/C(=C/c2[nH]ccc2C(=O)N1)C(=O)N3 [Cpd. 4] ; % Ctrl = 100

The molecule Cc1cc2c([nH]1)/C=C1\C(=O)Nc3c(Cl)cc(cc31)-c1cn(C)nc1COC[C@@H](C)N(C)C2=O [Cpd. 5] showed % Ctrl equal to 96
